Source: paper PMC5487730

Biological target: PedH (Pseudomonas putida)
Sequence (Q88JH0 28-595): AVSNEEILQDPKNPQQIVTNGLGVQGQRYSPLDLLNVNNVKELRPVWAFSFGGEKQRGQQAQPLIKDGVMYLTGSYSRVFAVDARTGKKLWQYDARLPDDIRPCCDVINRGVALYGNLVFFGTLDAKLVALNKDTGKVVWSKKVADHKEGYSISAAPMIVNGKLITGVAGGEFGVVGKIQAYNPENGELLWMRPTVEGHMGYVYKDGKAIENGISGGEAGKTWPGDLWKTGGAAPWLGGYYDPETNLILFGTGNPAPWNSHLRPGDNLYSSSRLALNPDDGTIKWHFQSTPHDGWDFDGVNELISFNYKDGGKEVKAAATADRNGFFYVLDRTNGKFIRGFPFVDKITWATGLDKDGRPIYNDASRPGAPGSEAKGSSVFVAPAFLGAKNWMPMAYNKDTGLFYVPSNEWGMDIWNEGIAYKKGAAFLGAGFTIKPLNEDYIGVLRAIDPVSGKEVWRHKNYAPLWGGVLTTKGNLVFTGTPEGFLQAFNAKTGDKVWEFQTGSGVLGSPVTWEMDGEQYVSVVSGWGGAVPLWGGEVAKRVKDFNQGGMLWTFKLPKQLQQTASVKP
Test: DCPIP/PMS dye-linked activity titrated with PQQ, one-site binding fit
Assay type: biochemical
Conditions: 10 mM ethanol, 1 µM PrCl3, 25 mM imidazole, 100 mM Tris HCl pH 8, 30°C preincubation
endpoint-name: pKd
Please express pKd as -log10 of the molar concentration.

**Q:** Determine its reported pKd: "O=C(O)c1cc(C(=O)O)c2c(n1)C(=O)C(=O)c1cc(C(=O)O)[nH]c1-2"
**A:** 7.39

----------
Molecular target: PedE (Pseudomonas putida, UniProt Q88JH5)
Sequence (Q88JH5 34-631): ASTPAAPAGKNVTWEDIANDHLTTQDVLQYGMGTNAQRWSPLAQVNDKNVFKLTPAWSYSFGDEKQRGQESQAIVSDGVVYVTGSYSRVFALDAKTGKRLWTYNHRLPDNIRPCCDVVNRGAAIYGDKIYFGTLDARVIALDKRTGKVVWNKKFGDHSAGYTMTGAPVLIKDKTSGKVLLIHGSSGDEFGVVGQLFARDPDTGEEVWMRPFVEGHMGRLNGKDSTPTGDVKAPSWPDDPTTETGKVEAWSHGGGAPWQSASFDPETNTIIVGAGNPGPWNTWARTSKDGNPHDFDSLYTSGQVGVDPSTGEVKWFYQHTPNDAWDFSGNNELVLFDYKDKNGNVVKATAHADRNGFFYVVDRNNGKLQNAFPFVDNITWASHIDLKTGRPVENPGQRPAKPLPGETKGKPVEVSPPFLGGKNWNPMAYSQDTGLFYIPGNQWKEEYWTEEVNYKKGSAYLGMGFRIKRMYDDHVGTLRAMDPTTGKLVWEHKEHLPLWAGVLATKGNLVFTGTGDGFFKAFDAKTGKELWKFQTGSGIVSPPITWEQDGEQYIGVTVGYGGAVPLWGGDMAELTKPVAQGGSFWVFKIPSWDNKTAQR
Experiment: DCPIP/PMS dye-linked activity titrated with PQQ, one-site binding fit
Conditions: 10 mM ethanol, 1 mM CaCl2, 25 mM imidazole, 100 mM Tris HCl pH 8, 30°C preincubation
endpoint-name: Kd (µM)
Give just the number in µM; leave the unit off.

**Q:** Determine its reported Kd: "O=C(O)c1cc(C(=O)O)c2c(n1)C(=O)C(=O)c1cc(C(=O)O)[nH]c1-2"
**A:** 3.5
